- assay.target: IKKε (Homo sapiens (Human), UniProt Q14164)
- Sequence (Q14164 whole entry): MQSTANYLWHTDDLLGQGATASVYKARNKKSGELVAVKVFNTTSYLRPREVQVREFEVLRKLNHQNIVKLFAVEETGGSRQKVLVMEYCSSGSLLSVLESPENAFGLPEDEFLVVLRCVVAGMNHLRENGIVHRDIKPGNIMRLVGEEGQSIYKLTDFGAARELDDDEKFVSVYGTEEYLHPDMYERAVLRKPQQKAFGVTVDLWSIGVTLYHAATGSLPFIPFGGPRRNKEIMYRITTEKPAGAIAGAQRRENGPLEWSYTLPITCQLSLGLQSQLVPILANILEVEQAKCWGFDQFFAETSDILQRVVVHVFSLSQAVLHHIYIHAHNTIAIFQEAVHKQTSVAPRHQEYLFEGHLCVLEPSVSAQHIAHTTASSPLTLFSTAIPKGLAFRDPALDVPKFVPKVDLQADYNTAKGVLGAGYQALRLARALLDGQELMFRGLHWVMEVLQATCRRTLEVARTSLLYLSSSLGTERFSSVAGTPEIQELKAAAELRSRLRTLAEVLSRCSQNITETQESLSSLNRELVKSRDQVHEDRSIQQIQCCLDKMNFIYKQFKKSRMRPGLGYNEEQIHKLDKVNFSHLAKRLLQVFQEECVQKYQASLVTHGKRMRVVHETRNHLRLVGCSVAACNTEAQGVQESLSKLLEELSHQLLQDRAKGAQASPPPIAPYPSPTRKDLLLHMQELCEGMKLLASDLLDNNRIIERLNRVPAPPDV
- experiment.description: TR-FRET kinase assay, IKKε
- Type: biochemical
- particulars: full length recombinant IKKε 0.3 nM, 2x Km ATP, 1 μM peptide, 240 min at 25° C.; geometric mean of minimum four determinations
pIC50: −log10 of the molar value.
parameter: pIC50

[1] CN1CCN(c2ccc(-c3nc4c(-c5ccc(OC6CCNCC6)c(C#N)c5)ncnc4[nH]3)cc2)CC1
[2] COc1cc(N2CCOCC2)ccc1-c1cc2c(-c3ccc(OC4CCOCC4)c(C#N)c3)ncnc2[nH]1
[3] CN1CCN(c2ccc(-c3cc4c(-c5ccc(OC6CCOCC6)c(C#N)c5)ccnc4[nH]3)cc2)CC1
QUERY: Place the items in sequence of falling pIC50. Record the ranking as a list of labels in the requested order.
RESULT: 3, 1, 2

---

- assay.target: IKKε (Homo sapiens (Human))
- experiment.description: TR-FRET kinase assay, IKKε
- particulars: full length recombinant IKKε 0.3 nM, 2x Km ATP, 1 μM peptide, 240 min at 25° C.; geometric mean of minimum four determinations
- Description: Biological Assay for TBK1 and IKKs:
pIC50: −log10 of the molar value.
parameter: pIC50

substance.smiles	assay.target	pIC50
CNC(=O)c1cccc(-c2cc3c(-c4ccc(OC5CCOCC5)c(C#N)c4)ccnc3[nH]2)c1	IKKε (Homo sapiens (Human))	7.96
COc1cc(-c2cc3c(-c4ccc(OC5CCOCC5)c(C#N)c4)ncnc3[nH]2)ccc1N1CCN(C2COC2)CC1	IKKε (Homo sapiens (Human))	8.16
N#Cc1cc(-c2ncnc3[nH]c(-c4ccc(C(=O)NC5COC5)cc4)cc23)ccc1OC1CCN(C(=O)CO)CC1	IKKε (Homo sapiens (Human))	8.75
Cn1cc(-c2cc3c(-c4ccc(OC5CCOCC5)c(C#N)c4)ccnc3[nH]2)cn1	IKKε (Homo sapiens (Human))	8.33
N#Cc1cc(-c2ccnc3[nH]c(-c4ccc(N5CCOCC5)cc4)cc23)ccc1OC1CCN(C(=O)CO)CC1	IKKε (Homo sapiens (Human))	8.43
CC(C)(O)c1ccc(-c2cc3c(-c4ccc(O[C@@H]5CCNC5)c(C#N)c4)ccnc3[nH]2)cc1	IKKε (Homo sapiens (Human))	6.92

[a] N#Cc1cc(-c2ccnc3[nH]c(-c4ccc(N5CCOCC5)nc4)cc23)ccc1OC1CCOCC1
[b] Cc1cc(N2CCOCC2)ccc1-c1cc2c(-c3ccc(OC4CCOCC4)c(C#N)c3)ccnc2[nH]1
QUERY: Lab note: check whether a or b has the lower measured pIC50. Use the label to indicate which entry you chose.
RESULT: b

[A] Cc1cc(N2CCOCC2)ccc1-c1cc2c(-c3ccc(OC4CCN(C(=O)CO)CC4)c(C#N)c3)ncnc2[nH]1
[B] N#Cc1cc(-c2ccnc3[nH]c(-c4ccc(N5CCOCC5)c(F)c4)cc23)ccc1OC1CCOCC1
QUERY: Rank A against B by their pIC50 values and give the higher one. Respond with the label that goes with your answer.
RESULT: A

---

- assay.target: IKKε (Homo sapiens (Human), UniProt Q14164)
- experiment.description: TR-FRET kinase assay, IKKε
- particulars: full length recombinant IKKε 0.3 nM, 2x Km ATP, 1 μM peptide, 240 min at 25° C.; geometric mean of minimum four determinations
parameter: IC50 (nM)

substance.smiles	IC50 / nM
N#Cc1cc(-c2ccnc3[nH]c(C(=O)N4CCOCC4)cc23)ccc1OC1CCOCC1	667
Cn1cc(-c2nc3c(-c4ccc(OC5CCOCC5)c(C#N)c4)ncnc3[nH]2)cn1	30.2
N#Cc1cc(-c2ncnc3[nH]c(-c4ccc(N5CCOCC5)c(F)c4)nc23)ccc1OC1CCNCC1	151
CNC(=O)c1ccc(-c2cc3c(-c4ccc(OC5CCOCC5)c(C#N)c4)ccnc3[nH]2)cc1	5.59

[P] COc1cc(-c2cc3c(-c4ccc(OC5CCOCC5)c(C#N)c4)ncnc3[nH]2)ccc1N1CCN(C(=O)CO)CC1
[Q] CN1CCN(c2ccc(-c3nc4c(-c5ccc(OC6CCN(C(=O)CO)CC6)c(C#N)c5)ncnc4[nH]3)cc2)CC1
QUERY: Lower value for measured IC50? Options: P , Q Write the label of whichever entry you select.
RESULT: Q
